// data source = ChEMBL document CHEMBL3864185

- ASSAY: Apparent volume of distribution in rat at 25 mg/kg, po administered as single dose
- Format: ADME, organism-based
- CONDITION_SUMMARY: in vivo
MEASURED_PARAMETER: Vd/F

INSERT INTO results (sample_smiles, measured_parameter, recorded_result) VALUES
  ('Cc1ccc2nc(C)c(C(=O)NCCOc3ccccc3)n2c1', 'Vd/F', '33.8 L/kg'),
  ('COc1cccc(OCCNC(=O)c2c(C)nc3ccc(C)cn23)c1', 'Vd/F', '188 L/kg'),
  ('Cc1ccc2nc(C)c(C(=O)NCCOc3ccc(Br)cc3)n2c1', 'Vd/F', '186 L/kg');

* * *

- ASSAY: Tmax in rat at 25 mg/kg, po administered as single dose
- Format: ADME, organism-based
- CONDITION_SUMMARY: in vivo
MEASURED_PARAMETER: Tmax (min)

INSERT INTO assay_data (sample_smiles, recorded_result) VALUES
  ('Cc1ccc2nc(C)c(C(=O)NCCOc3ccc(Br)cc3)n2c1', 30),
  ('Cc1ccc2nc(C)c(C(=O)NCCOc3ccccc3)n2c1', 19.8),
  ('COc1cccc(OCCNC(=O)c2c(C)nc3ccc(C)cn23)c1', 10.2);

* * *

- ASSAY: Mean residence time in rat at 25 mg/kg, po administered as single dose
- Type: ADME, organism-based
- CONDITION_SUMMARY: in vivo
MEASURED_PARAMETER: MRT (min)

INSERT INTO measurements (sample_smiles, measured_parameter, unit_symbol, recorded_result) VALUES
  ('COc1cccc(OCCNC(=O)c2c(C)nc3ccc(C)cn23)c1', 'MRT', 'min', 42.6),
  ('Cc1ccc2nc(C)c(C(=O)NCCOc3ccccc3)n2c1', 'MRT', 'min', 36.6),
  ('Cc1ccc2nc(C)c(C(=O)NCCOc3ccc(Br)cc3)n2c1', 'MRT', 'min', 96);

* * *

MIC overview
- Tested on: Staphylococcus aureus
- ASSAY: Antibacterial activity against Staphylococcus aureus ATCC 25923 after 18 to 24 hrs by NCCLS M100-S11 based assay
- Type: functional
MEASURED_PARAMETER: MIC

INSERT INTO assay_data (sample_smiles, recorded_result) VALUES
  ('Cc1ccc2nc(C)c(C(=O)NCCOc3ccc(Br)cc3)n2c1', '> 32 µg/mL'),
  ('Cc1ccc2nc(C)c(C(=O)NCCOc3ccccc3)n2c1', '> 32 µg/mL'),
  ('COc1cccc(OCCNC(=O)c2c(C)nc3ccc(C)cn23)c1', '> 32 µg/mL'),
  ('COc1ccc(OCCNC(=O)c2c(C)nc3ccc(C)cn23)cc1', '> 32 µg/mL'),
  ('Cc1ccc2nc(C)c(C(=O)NCCOc3ccccc3C)n2c1', '> 32 µg/mL'),
  ('Cc1ccc2nc(C)c(C(=O)NCCOc3ccc(Cl)cc3)n2c1', '> 32 µg/mL'),
  ('Cc1cccc(OCCNC(=O)c2c(C)nc3ccc(C)cn23)c1', '> 32 µg/mL');

* * *

- ASSAY: Cmax in rat at 25 mg/kg, po administered as single dose
- Format: ADME, organism-based
- Set-up: dose 25 mg/kg, route oral
- CONDITION_SUMMARY: in vivo
Cmax reference
MEASURED_PARAMETER: Cmax (ng/mL)

INSERT INTO assay_data (sample_smiles, measured_parameter, recorded_result) VALUES
  ('COc1cccc(OCCNC(=O)c2c(C)nc3ccc(C)cn23)c1', 'Cmax', 351),
  ('Cc1ccc2nc(C)c(C(=O)NCCOc3ccccc3)n2c1', 'Cmax', 655),
  ('Cc1ccc2nc(C)c(C(=O)NCCOc3ccc(Br)cc3)n2c1', 'Cmax', 225);
